- System: Mus musculus
- assay_method_text: Toxicity in mouse S180 cells allografted mouse assessed as heart weight at 1 umol/kg, ip for 7 consecutive days measured 24 hrs after last dose (reference value: 0.12 +/- 0.02 g)
- Type: organism-based, CCRF S-180
- condition_label: in vivo
metric: Activity (g)
Could you give me the number in g? Just the number is fine.

smiles_string | Activity (g)
O=C(C[C@H](NC(=O)[C@H](Cc1c[nH]c2ccccc12)NC(=O)[C@H](Cc1c[nH]c2ccccc12)NC(=O)c1cc2ccc(O)cc2oc1=O)C(=O)OCc1ccccc1)OCc1ccccc1 | 0.13
O=C(N[C@@H](Cc1c[nH]c2ccccc12)C(=O)N[C@@H](Cc1c[nH]c2ccccc12)C(=O)N[C@@H](CO)C(=O)OCc1ccccc1)c1cc2ccc(O)cc2oc1=O | 0.12
O=C(O)c1cc2ccc(O)cc2oc1=O | 0.12

Prompt: Can you look up Activity on Mus musculus for O=C(N[C@@H](Cc1c[nH]c2ccccc12)C(=O)N[C@@H](Cc1c[nH]c2ccccc12)C(=O)N[C@@H](Cc1ccccc1)C(=O)OCc1ccccc1)c1cc2ccc(O)cc2oc1=O ?
Completion: 0.11

Prompt: What measured Activity is associated with O=C(N[C@@H](Cc1c[nH]c2ccccc12)C(=O)N[C@@H](Cc1c[nH]c2ccccc12)C(=O)N[C@@H](Cc1c[nH]c2ccccc12)C(=O)OCc1ccccc1)c1cc2ccc(O)cc2oc1=O on Mus musculus?
Completion: 0.12

Prompt: So what Activity did O=C(N[C@@H](Cc1c[nH]c2ccccc12)C(=O)N[C@@H](Cc1c[nH]c2ccccc12)C(=O)OCc1ccccc1)c1cc2ccc(O)cc2oc1=O get with Mus musculus?
Completion: 0.1

###

- Tested on: Mus musculus
- assay_method_text: Toxicity in mouse S180 cells allografted mouse assessed as kidney weight at 1 umol/kg, ip for 7 consecutive days measured 24 hrs after last dose (reference value: 0.16 +/- 0.04 g)
- Type: organism-based, CCRF S-180
- condition_label: in vivo
metric: Activity (g)
Return type: number; implicit unit g.

Please review the following examples before continuing.
smiles_string | metric | value
O=C(N[C@@H](Cc1c[nH]c2ccccc12)C(=O)N[C@@H](Cc1c[nH]c2ccccc12)C(=O)N1CCC[C@H]1C(=O)OCc1ccccc1)c1cc2ccc(O)cc2oc1=O | Activity | 0.14
O=C(N[C@@H](Cc1c[nH]c2ccccc12)C(=O)N[C@@H](Cc1c[nH]c2ccccc12)C(=O)OCc1ccccc1)c1cc2ccc(O)cc2oc1=O | Activity | 0.14
O=C(N[C@@H](Cc1c[nH]c2ccccc12)C(=O)N[C@@H](Cc1c[nH]c2ccccc12)C(=O)N[C@@H](Cc1ccc(O)cc1)C(=O)OCc1ccccc1)c1cc2ccc(O)cc2oc1=O | Activity | 0.15
C[C@@H](O)[C@H](NC(=O)[C@H](Cc1c[nH]c2ccccc12)NC(=O)[C@H](Cc1c[nH]c2ccccc12)NC(=O)c1cc2ccc(O)cc2oc1=O)C(=O)OCc1ccccc1 | Activity | 0.17
O=C(CC[C@H](NC(=O)[C@H](Cc1c[nH]c2ccccc12)NC(=O)[C@H](Cc1c[nH]c2ccccc12)NC(=O)c1cc2ccc(O)cc2oc1=O)C(=O)OCc1ccccc1)OCc1ccccc1 | Activity | 0.18
O=C(N[C@@H](Cc1c[nH]c2ccccc12)C(=O)N[C@@H](Cc1c[nH]c2ccccc12)C(=O)N[C@@H](CO)C(=O)OCc1ccccc1)c1cc2ccc(O)cc2oc1=O | Activity | 0.18

Prompt: API: value(readout=Activity, system=Mus musculus) for record O=C(O)c1cc2ccc(O)cc2oc1=O
Completion: 0.2

Prompt: Short answer please: Activity, Mus musculus, entry CC(C)C[C@H](NC(=O)[C@H](Cc1c[nH]c2ccccc12)NC(=O)[C@H](Cc1c[nH]c2ccccc12)NC(=O)c1cc2ccc(O)cc2oc1=O)C(=O)OCc1ccccc1
Completion: 0.18
